System: Setaria viridis
Assay procedure: Herbicidal post-emergence action (greenhouse pots), SETVI
Format: in vivo
Recorded conditions: 1280 g/ha, rated after about 3 weeks, 100% = plants have died, 0% = like untreated control plants
Measure name: SETVI (herbicidal activity, rated visually in comparison to untreated controls) (%)
Numbers only here, please. The scale is %.

Recorded SETVI (herbicidal activity, rated visually in comparison to untreated controls), per entry:
Molecular string: N#Cc1cccc(Nc2ncc(Cl)cn2)c1Oc1ccc(F)nc1
Tested target: Setaria viridis
Reported value: 90

Molecular string: N#Cc1cccc(Nc2ncc(Cl)cn2)c1Oc1ccc(F)cc1
Tested target: Setaria viridis
Reported value: 100

Molecular string: N#Cc1cccc(Nc2ncc(Cl)cn2)c1Oc1ccc(Cl)cc1
Tested target: Setaria viridis
Reported value: 90

Molecular string: N#Cc1cccc(Nc2ncc(F)cn2)c1Oc1ccc(F)nc1
Tested target: Setaria viridis
Reported value: 90

Consider `N#Cc1ccc(Oc2c(C#N)cccc2Nc2ncc(Cl)cn2)cc1` . Its measured SETVI (herbicidal activity, rated visually in comparison to untreated controls) is 90

# SETVI (herbicidal activity, rated visually in comparison to untreated controls) (molecule: `N#Cc1cccc(Nc2ncc(Cl)cn2)c1Oc1ccc(Cl)nc1` ) is 100

Notebook: `N#Cc1cccc(Nc2ncc(Cl)cn2)c1Oc1ccc(C(F)(F)F)cc1` , SETVI (herbicidal activity, rated visually in comparison to untreated controls) read as 90

SETVI (herbicidal activity, rated visually in comparison to untreated controls) reported for this molecule `N#Cc1cccc(Nc2ncc(F)cn2)c1Oc1ccc(Cl)cc1` : 90

SETVI (herbicidal activity, rated visually in comparison to untreated controls) reading for `N#Cc1cccc(Nc2ncc(F)cn2)c1Oc1ccc(Cl)nc1` : 90

Quick note, SETVI (herbicidal activity, rated visually in comparison to untreated controls) for `Cc1cnc(Nc2cccc(C#N)c2Oc2ccc(F)cc2)nc1` landed at 100

What the record says about `N#Cc1cccc(Nc2ncccn2)c1Oc1ccc(F)c(F)c1` : SETVI (herbicidal activity, rated visually in comparison to untreated controls) is 90

The recorded SETVI (herbicidal activity, rated visually in comparison to untreated controls) for entry `N#Cc1cccc(Nc2ncc(Cl)cn2)c1Oc1ccc(F)cc1F` equals 90

For this molecule ( `Fc1ccc(Oc2c(F)cccc2Nc2ncc(Cl)cn2)cc1` ), measured SETVI (herbicidal activity, rated visually in comparison to untreated controls) is 100

Just so you know, measured SETVI (herbicidal activity, rated visually in comparison to untreated controls) for `N#Cc1cccc(Nc2ncc(Cl)cn2)c1Oc1ccc(F)c(F)c1` came out at 100

`N#Cc1cccc(Nc2ncc(F)cn2)c1Oc1ccc(F)cc1F` yielded SETVI (herbicidal activity, rated visually in comparison to untreated controls) of 90
